Data credit: ChEMBL document CHEMBL5370639

System: enterovirus D68
Experiment: Antiviral activity against enterovirus D68 US/MO/14-18947 infected in human RD cells assessed as reduction in virus induced cytopathic effect by neutral red staining based CPE assay
Assay type: functional, organism-based
Settings: Enterovirus D, US/MO/14-18947, RD
readout label: pEC50
Numbers only, as −log10 of the molar value.

# count of solved cases: 10
INSERT INTO results (compound, reported_measurement) VALUES
  ('CC(C)(C)[C@H](NC(=O)CC12CC3CC(CC(C3)C1)C2)C(=O)N1C[C@@H]2CCC[C@@H]2[C@H]1C(=O)N[C@H](C(=O)C(N)=O)C1CCCCC1', 6.85),
  ('CCC[C@H](NC(=O)[C@@H]1[C@H]2CCC[C@H]2CN1C(=O)[C@@H](NC(=O)OCc1ccccc1)C(C)(C)C)C(=O)C(=O)NC1CC1', 5.54),
  ('CCC[C@H](NC(=O)[C@@H]1[C@H]2CCC[C@H]2CN1C(=O)OCc1ccccc1)C(=O)C(=O)NC1CC1', 4.59),
  ('CC(C)(C)[C@H](NC(=O)CC12CC3CC(CC(C3)C1)C2)C(=O)N1C[C@@H]2CCC[C@@H]2[C@H]1C(=O)N[C@@H](Cc1ccccc1)C(=O)C(=O)NC1CC1', 6.60),
  ('CCC[C@H](NC(=O)[C@@H]1[C@H]2CCC[C@H]2CN1C(=O)[C@@H](NC(=O)[C@@H](NC(=O)OCc1ccccc1)C1CCCCC1)C(C)(C)C)C(=O)C(=O)NC1CC1', 6.08),
  ('CC(C)[C@H](NC(=O)[C@@H]1[C@H]2CCC[C@H]2CN1C(=O)[C@@H](NC(=O)CC12CC3CC(CC(C3)C1)C2)C(C)(C)C)C(=O)C(=O)NC1CC1', 6.80),
  ('CC(C)(C)Oc1ccc(C[C@H](NC(=O)[C@@H]2[C@H]3CCC[C@H]3CN2C(=O)[C@@H](NC(=O)CC23CC4CC(CC(C4)C2)C3)C(C)(C)C)C(=O)C(=O)NC2CC2)cc1', 5.76),
  ('CCC[C@@H](C#N)NC(=O)[C@@H]1[C@H]2CCC[C@H]2CN1C(=O)[C@@H](NC(=O)CC12CC3CC(CC(C3)C1)C2)C(C)(C)C', 5.41),
  ('CCC[C@H](NC(=O)[C@@H]1[C@H]2CCC[C@H]2CN1C(=O)[C@@H](NC(=O)NC12CC3CC(CC(C3)C1)C2)C(C)(C)C)C(=O)C(=O)NC1CC1', 6.15),
  ('CCC(C)[C@H](NC(=O)[C@@H]1[C@H]2CCC[C@H]2CN1C(=O)[C@@H](NC(=O)CC12CC3CC(CC(C3)C1)C2)C(C)(C)C)C(=O)C(=O)NC1CC1 (some centres not stated)', 6.80);

State recorded pEC50 for all listed compounds.
1. CCC[C@H](NC(=O)[C@@H]1[C@H]2CCC[C@H]2CN1C(=O)[C@@H](NC(=O)CC1CCC(F)(F)CC1)C(C)(C)C)C(=O)C(=O)NC1CC1
2. CCC[C@H](NC(=O)[C@@H]1[C@H]2CCC[C@H]2CN1C(=O)[C@@H](NC(=O)CC12CC3CC(CC(C3)C1)C2)C(C)(C)C)C(=O)C(=O)NC1CC1
3. CC(C)C[C@H](NC(=O)[C@@H]1[C@H]2CCC[C@H]2CN1C(=O)[C@@H](NC(=O)CC12CC3CC(CC(C3)C1)C2)C(C)(C)C)C(=O)C(=O)NC1CC1
4. CC(C)(C)[C@H](NC(=O)CC12CC3CC(CC(C3)C1)C2)C(=O)N1C[C@@H]2CCC[C@@H]2[C@H]1C(=O)NC1(C(=O)C(=O)NC2CC2)CCC1
5. CC(C)(C)[C@H](NC(=O)CC12CC3CC(CC(C3)C1)C2)C(=O)N1C[C@@H]2CCC[C@@H]2[C@H]1C(=O)N[C@H](C(=O)C(=O)NC1CC1)C1CCCCC1
6. CCC[C@H](NC(=O)[C@@H]1[C@H]2CCC[C@H]2CN1C(=O)[C@@H](NC(=O)CC1CCCCC1)C(C)(C)C)C(=O)C(=O)NC1CC1
7. CC(C)(C)[C@H](NC(=O)CC12CC3CC(CC(C3)C1)C2)C(=O)N1C[C@@H]2CCC[C@@H]2[C@H]1C(=O)NC1(C(=O)C(=O)NC2CC2)CCCCC1
8. CC(C)(C)[C@H](NC(=O)CC12CC3CC(CC(C3)C1)C2)C(=O)N1C[C@@H]2CCC[C@@H]2[C@H]1C(=O)N[C@@H](Cc1c[nH]c2ccccc12)C(=O)C(=O)NC1CC1

Solution:
6.12
6.80
6.59
5.49
6.89
6.42
6.00
6.55

Exercise: Which pEC50 value belongs to COC[C@H](NC(=O)[C@@H]1[C@H]2CCC[C@H]2CN1C(=O)[C@@H](NC(=O)CC12CC3CC(CC(C3)C1)C2)C(C)(C)C)C(=O)C(=O)NC1CC1 ?
Solution: 5.64
